All values here come from paper PMC8119466.

target: recombinant PRL-3 (Homo sapiens); construct: 6xHis (N, cleaved yes); made in house; host or cells: E. coli One Shot BL21 Star; test: In vitro phosphatase assay (DiFMUP hydrolysis), PRL-3; assay type: biochemical; settings: FDA-approved drug screen; compared to DMSO
Sequence (O75365 whole entry): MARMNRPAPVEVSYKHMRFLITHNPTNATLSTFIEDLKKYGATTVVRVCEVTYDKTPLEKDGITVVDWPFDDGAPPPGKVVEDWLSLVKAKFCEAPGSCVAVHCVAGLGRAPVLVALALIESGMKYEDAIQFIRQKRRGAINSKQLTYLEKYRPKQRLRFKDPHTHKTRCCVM
Where a name gives a salt, the structure may show the parent alone. Starred links: 1 amine or outer side, 2 acyl side, 3 side chain; linkers in the order of their positions; H or OH if unused. Positions of bridges follow the written chain, without caps; N, C: chain ends. Non-standard residues stand in square brackets, D forms with d. Residues, ends and D or L forms follow the SMILES beside them. *: point of attachment. pTerphenylCO(4''-OnC5H11) = CCCCCOc1ccc(-c2ccc(-c3ccc(C(=O)*)cc3)cc2)cc1; Orn(4R-OH,5R-OH) = O=C([C@H](C[C@@H](O)[C@@H](O)N[*:3])N[*:1])[*:2]; hTyr(3S-OH,4S-OH) = N[C@H](C(=O)O)[C@H](O)[C@@H](O)c1ccc(O)cc1; Pro(3S-OH,4S-Me) = C[C@H]1CN[C@H](C(=O)O)[C@H]1O; Hyp = O=C(O)[C@@H]1C[C@@H](O)CN1
Field 'label' (enum: Y / N). Set to Y when % Phosphatase Activity (compared to DMSO) PRL-3 is strictly under 90%; else N.

See these solved cases before continuing.
Nc1nccs1 [Aminothiazole]    Y
CCN[C@H]1C[C@H](C)S(=O)(=O)c2sc(S(N)(=O)=O)cc21 [Dorzolamide HCl]    Y
CC1(C)S[C@@H]2[C@H](NC(=O)[C@H](NC(=O)N3CCN(S(C)(=O)=O)C3=O)c3ccccc3)C(=O)N2[C@H]1C(=O)O [Mezlocillin Sodium]    Y
Cn1c([N+](=O)[O-])cnc1COC(N)=O [Ronidazole]    Y
CCN1CCN(c2cc3c(cc2F)c(=O)c(C(=O)O)cn3C2CC2)CC1 [Enrofloxacin]    N

Enquiry: Lab log: compare recorded % Phosphatase Activity (compared to DMSO) PRL-3 with 90%; is it strictly lower for N#Cc1ccc(C(c2ccc(C#N)cc2)n2cncn2)cc1 [Letrozole] ?
Return: Y

Enquiry: Lab log: compare recorded % Phosphatase Activity (compared to DMSO) PRL-3 with 90%; is it strictly lower for CCCCc1ncc(/C=C(\Cc2cccs2)C(=O)O)n1Cc1ccc(C(=O)O)cc1 [Eprosartan Mesylate] ?
Return: Y

Enquiry: Lab log: compare recorded % Phosphatase Activity (compared to DMSO) PRL-3 with 90%; is it strictly lower for CCCCCOc1ccc(-c2ccc(-c3ccc(C(=O)N[C@H]4C[C@@H](O)[C@@H](O)NC(=O)[C@@H]5[C@@H](O)[C@@H](C)CN5C(=O)[C@H]([C@@H](C)O)NC(=O)[C@H]([C@H](O)[C@@H](O)c5ccc(O)cc5)NC(=O)[C@@H]5C[C@@H](O)CN5C(=O)[C@H]([C@@H](C)O)NC4=O)cc3)cc2)cc1 [Anidulafungin (LY303366)] ({pTerphenylCO(4''-OnC5H11)}-[Orn(4R-OH,5R-OH)]T[Hyp][hTyr(3S-OH,4S-OH)]T[Pro(3S-OH,4S-Me)]; lactam 1-C) ?
Return: N

Enquiry: Lab log: compare recorded % Phosphatase Activity (compared to DMSO) PRL-3 with 90%; is it strictly lower for CC(C)(C#N)c1cc(Cn2cncn2)cc(C(C)(C)C#N)c1 [Anastrozole] ?
Return: N

* * *

# % Phosphatase Activity (compared to DMSO) PRL-1 values compiled below
target: recombinant PRL-1 (Homo sapiens, UniProt Q93096); construct: 6xHis (N, cleaved yes); made in house; host or cells: E. coli One Shot BL21 Star; experiment: In vitro phosphatase assay (DiFMUP hydrolysis), PRL-1; type: biochemical; conditions: FDA-approved drug screen; compared to DMSO
Sequence (Q93096 whole entry): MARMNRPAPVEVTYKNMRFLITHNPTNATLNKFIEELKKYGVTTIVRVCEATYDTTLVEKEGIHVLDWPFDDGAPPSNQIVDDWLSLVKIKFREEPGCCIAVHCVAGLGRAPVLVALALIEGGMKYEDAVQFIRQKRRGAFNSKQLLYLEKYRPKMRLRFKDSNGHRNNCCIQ
Quick reminder: number only, in %, skip the unit.

Consider the reported % Phosphatase Activity (compared to DMSO) PRL-1 for these compounds:
CN(C)/N=N/c1[nH]cnc1C(N)=O    92
C[C@H](CCC(=O)O)[C@H]1CC[C@H]2[C@@H]3CC[C@@H]4C[C@H](O)CC[C@]4(C)[C@H]3C[C@H](O)[C@]12C    89
C#C[C@]1(O)C=C[C@H]2[C@@H]3CCC4=CC(=O)CC[C@@H]4[C@H]3CC[C@@]21CC    91
Cc1cn([C@H]2O[C@@H](CO)[C@H](O)[C@H]2F)c(=O)[nH]c1=O    103
CCCN(CCC)C(=O)C1=Cc2ccc(-c3ccc(C(=O)N4CCCC4)cc3)cc2N=C(N)C1    103

Enquiry: State % Phosphatase Activity (compared to DMSO) PRL-1 on recombinant PRL-1 (Homo sapiens, UniProt Q93096). Entry: COc1ccc(-c2ccc3cc(C(=O)O)ccc3c2)cc1C12CC3CC(CC(C3)C1)C2
Return: 183

Enquiry: State % Phosphatase Activity (compared to DMSO) PRL-1 on recombinant PRL-1 (Homo sapiens, UniProt Q93096). Entry: CC(C)(C)C(=O)OCOP(=O)(COCCn1cnc2c(N)ncnc21)OCOC(=O)C(C)(C)C
Return: 92

Enquiry: State % Phosphatase Activity (compared to DMSO) PRL-1 on recombinant PRL-1 (Homo sapiens, UniProt Q93096). Entry: CC(C)C[C@H](NC(=O)[C@H](Cc1ccccc1)NC(=O)c1cnccn1)B(O)O
Return: 104

Enquiry: State % Phosphatase Activity (compared to DMSO) PRL-1 on recombinant PRL-1 (Homo sapiens, UniProt Q93096). Entry: CCCCCC(=O)O[C@]1(C(C)=O)CC[C@H]2[C@@H]3CCC4=CC(=O)CC[C@]4(C)[C@H]3CC[C@@]21C [Hydroxyprogesterone caproate]
Return: 91

* * *

biological target: recombinant PRL-3 (Homo sapiens); construct: 6xHis (N, cleaved yes); made in house; host or cells: E. coli One Shot BL21 Star; assay: In vitro phosphatase assay (DiFMUP hydrolysis), PRL-3; assay type: biochemical; details: FDA-approved drug screen; compared to DMSO
Structures can show the parent of a compound that is named as a salt.
Field 'label' (enum: fulfilled / not fulfilled). Set to fulfilled when % Phosphatase Activity (compared to DMSO) PRL-3 is strictly under 90%; else not fulfilled.

CC12CCC(CC1=O)C2(C)C (stereo not drawn) [(+)-Camphor]    not fulfilled
CCCNC(=O)NS(=O)(=O)c1ccc(Cl)cc1 [Chlorpropamide]    fulfilled
COc1cc(C)c(/C=C/C(C)=C/C=C/C(C)=C/C(=O)O)c(C)c1C    fulfilled
CCC[S+]([O-])c1ccc2[nH]c(NC(=O)OC)nc2c1 (stereo not shown) [Albendazole Oxide]    not fulfilled

Enquiry: Lab log: compare recorded % Phosphatase Activity (compared to DMSO) PRL-3 with 90%; is it strictly lower for CCN(CC)CCOC(=O)C(c1ccccc1)c1ccccc1 [Adiphenine HCl] ?
Return: fulfilled

Enquiry: Lab log: compare recorded % Phosphatase Activity (compared to DMSO) PRL-3 with 90%; is it strictly lower for CC(=O)OCC1=C(C(=O)O)N2C(=O)[C@@H](NC(=O)Cc3cccs3)[C@H]2SC1 ?
Return: fulfilled

* * *

target: recombinant PRL-1 (Homo sapiens, UniProt Q93096); construct: 6xHis (N, cleaved yes); made in house; host or cells: E. coli One Shot BL21 Star; test: In vitro phosphatase assay (DiFMUP hydrolysis), PRL-1; type: biochemical; details: FDA-approved drug screen; compared to DMSO
Structures can show the parent of a compound that is named as a salt.
# % Phosphatase Activity (compared to DMSO) PRL-1 values compiled below
Quick reminder: number only, in %, skip the unit.

Consider the reported % Phosphatase Activity (compared to DMSO) PRL-1 for these compounds:
CC(=O)O[C@@]12CO[C@@H]1C[C@H](O)[C@@]1(C)C(=O)[C@H](O)C3=C(C)[C@@H](OC(=O)[C@H](O)[C@@H](NC(=O)OC(C)(C)C)c4ccccc4)C[C@@](O)([C@@H](OC(=O)c4ccccc4)[C@H]21)C3(C)C [Docetaxel Trihydrate]    93
CCN1CCCC1CNC(=O)c1cc(S(=O)(=O)CC)c(N)cc1OC (stereo not shown) [Amisulpride]    94
Cl.N=C(N)N [Guanidine HCl]    103
NC(=O)C[S+]([O-])C(c1ccccc1)c1ccccc1 (stereo not shown)    91
C[C@@H]1[C@H](O)[C@@H](C)/C=C/C=C/CC/C=C/C=C/C=C/C=C/[C@H](O[C@H]2O[C@@H](C)[C@H](O)[C@@H](N)[C@H]2O)C[C@@H]2O[C@](O)(C[C@@H](O)[C@H](O)CC[C@@H](O)C[C@@H](O)C[C@@H](O)CC(=O)O[C@H]1C)C[C@H](O)[C@H]2C(=O)O    79
C[C@]12CCC(=O)C=C1[C@@H]1C[C@@H]1[C@H]1[C@@H]3[C@@H]4C[C@@H]4[C@@]4(CCC(=O)O4)[C@@]3(C)CC[C@@H]12    90

From here, focus on the item given below.
Enquiry: Provide one value: measured % Phosphatase Activity (compared to DMSO) PRL-1 of CCCCN1CCCC[C@H]1C(=O)Nc1c(C)cccc1C [Levobupivacaine HCl]
Return: 91
